B1: tRNA (parent)
chain: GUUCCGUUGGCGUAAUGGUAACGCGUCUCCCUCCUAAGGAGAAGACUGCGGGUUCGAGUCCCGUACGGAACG

- Variants of: B1
- Method: yeast fitness relative to wild type (ratio to wild type); higher = fitter; tRNA-Arg(CCU), competitive growth, 37 C, YPD
Variants at the floor of the assay were thinned out.
Property label: yeast fitness

Please review the entries below; each comes with its answer.
G17C C46U G68A	≤ 0.5
A42U C49U	0.975
U7C C27U	0.875

Quick one: yeast fitness for C5G C24A ?
0.96

Quick one: yeast fitness for C4A C27U U28G C33G A36G G56C ?
≤ 0.5

Quick one: yeast fitness for C30A A42U C49U U59C A69C ?
0.557

Quick one: yeast fitness for C11U C22U A43C C49U C55G C61U ?
≤ 0.5
